Known cytotoxicity at 10 µM of a selection of compounds
ASSAY SUMMARY: Toxicity liver stage against HepG2, at 10uM
Format: cell-based
Parameters: test concentration 10 uM, cell line HepG2-A16-CD81EGFP
ASSAY CONDITIONS: human, HepG2-A16-CD81EGFP cells; read-out: INHIBITION
Numbers only; they are read as %.

Cc1csc(CNc2cccc(OCCN3CCCC3)c2)n1 :: -4.49

-- ask So what's the measured cytotoxicity at 10 µM for this one? CCSc1ccc(NC(=O)N2CCCC2c2ccncc2)cn1 (stereo not drawn)
-- reply -8.88

-- ask So what's the measured cytotoxicity at 10 µM for this one? CCc1ccc(CN2CCC3(CC2)CN(c2cnn(C)c2)C(=O)CO3)o1
-- reply 0.777

-- ask So what's the measured cytotoxicity at 10 µM for this one? O=C1CC[C@H]2CN(c3ncc(F)cn3)CC[C@H]2N1CCc1ccccn1
-- reply 4.83

-- ask So what's the measured cytotoxicity at 10 µM for this one? CN(C)CC1(O)CCN(C(=O)c2ccc(-n3cnnc3)cc2Cl)C1 (stereo not drawn)
-- reply -5.06

-- ask So what's the measured cytotoxicity at 10 µM for this one? CC(C)CN(Cc1nnc(-c2ccco2)o1)CC(C)C
-- reply 0.0773

-- ask So what's the measured cytotoxicity at 10 µM for this one? CN(c1ncc(C(=O)NCc2ccccc2)c(N)n1)C1CCCCC1
-- reply -4.31

-- ask So what's the measured cytotoxicity at 10 µM for this one? O=C1CO[C@H]2CN(S(=O)(=O)c3ccccc3)C[C@H]2N1Cc1ccccc1
-- reply -1.69

-- ask So what's the measured cytotoxicity at 10 µM for this one? CNC(=O)[C@@H]1C[C@@H](NC(=O)c2ccc(OC)o2)CN1Cc1sccc1C
-- reply 2.29

-- ask So what's the measured cytotoxicity at 10 µM for this one? O=C(CC1CC1)N1C[C@@H]2CCN(c3cccnc3)C[C@@H]2C1
-- reply 4.62

-- ask So what's the measured cytotoxicity at 10 µM for this one? CCN1C(=O)[C@H]2CN(CC(C)C)C[C@H]2C12CCN(S(C)(=O)=O)CC2
-- reply 10.3

-- ask So what's the measured cytotoxicity at 10 µM for this one? Cn1ccc(C(=O)NC2CCC23CCN(C(=O)c2ccncc2)CC3)c1 (stereo not drawn)
-- reply -9.84

-- ask So what's the measured cytotoxicity at 10 µM for this one? COc1ccc(C2CC(=O)Nc3c2cnn3C)cc1 (stereo not drawn)
-- reply 22

-- ask So what's the measured cytotoxicity at 10 µM for this one? Cc1cnn(CC2CN(Cc3ccc(C(N)=O)cc3)CCO2)c1 (stereo not drawn)
-- reply -2.28

-- ask So what's the measured cytotoxicity at 10 µM for this one? CCn1ncc2c1C(COC)N(C(=O)c1ccsc1)CC2 (stereo not drawn)
-- reply -101
